Tested on: NCI-H226 lung
Test: NCI-60 one-dose screen, 48 h
Settings: 10 µM unless noted
The panel holds about 83,000 compounds, 20% with a hit somewhere; the sample as a whole holds those more often. Activity calls are given as the source filed them. Rule for the calls: active = growth percent below 10; inactive = the rest.
Possible outcomes: active, inactive

Molecule | Assigned Class
O=C(Cc1cccc(OC(F)(F)F)c1)Nc1ccc(CCCCc2nnc(NC(=O)Cc3ccccn3)s2)nn1 | inactive
O=S(=O)(Nc1cc(Sc2cccc3cccnc23)c(O)c2ccccc12)c1ccccc1 | inactive
Cc1ccc(CNc2c3ccccc3nc3ccccc23)cc1 | inactive
COc1cc(/C=N/Nc2ccc(Br)cc2)cc(OC)c1OC | inactive
CCc1n(Cc2ccc3ccccc3n2)cc[n+]1Cc1ccc2ccccc2n1 | inactive
COc1cc(OC)cc(-c2ccc(-c3ccc(C(=N)N)o3)o2)c1 | inactive
COc1cc(C(=O)c2c(-c3ccccc3)oc3c(OC)cccc23)cc(OC)c1OC | active
C=C1CC[C@@H]2[C@](C)(COC(C)=O)[C@H](OC(C)=O)CC[C@@]2(C)[C@@H]1CC(Nc1ccc(S(=O)(=O)NC(C)=O)cc1)C1=CCOC1=O (stereo not given in full) | active
O=C(C1CCCCC1)[C@@H]1[C@]2(C(=O)NC3CCCCC32)[C@@H]2CCCN2[C@@]12C(=O)NC1CCC(Cl)CC12 (stereo not given in full) | active
COc1ccc(/C=C/C(c2cc(OC)c(OC)c(OC)c2)n2ccnc2)cc1O (stereo not given) | inactive

----------
This listing pairs compounds with measured growth.
Tested on: NCI-H23 lung
Experiment: NCI-60 one-dose screen, 48 h (100 = growth as untreated, 0 = no growth, -100 = all killed)
Conditions: 10 µM unless noted
Method: Growth inhibition of the NCI-H23 human Non-Small Cell Lung tumor cell line is measured as a screen for anti-cancer activity. Cells are grown in 96 well plates and exposed to the test compound for 48 hours. Compounds are tested at a single concentration, which is 10^-5 M for most compounds. The reported endpoint is percent growth (GI% or GIPRCNT), where numbers from 0 - 100% represent growth inhibition, and numbers from -100% - 0 represent cell death. […]
About 83,000 compounds went through this panel and 20% of them were active in at least one assay; those are over-represented in the sample as a whole.
Readout Name: growth (%)

Compound | Readout Name | Reported Result
COc1ccc(Cn2cc(C(=O)N=Nc3c(O)[nH]c4c(C)cccc34)nn2)cc1 | growth | 89.1
CCN1C(=O)N(CC)C2C1NN=c1s/c(=C3\C(=O)N(CC(C)C)c4ccccc43)c(=O)n12 (stereo unspecified) | growth | 31.1
CC/C=C\C[C@H](O)C/C=C1/C(=O)C=C[C@@H]1C/C=C\CCCC(=O)O | growth | 79.9
O=C(/C=C/c1ccc(Oc2ccc(Br)cc2)cc1)c1ccc(Br)cc1 | growth | 95.3
COc1ccc(C(=O)Cn2c(C(=O)c3ccc(Cl)cc3)nc3ccccc32)cc1 | growth | 78.3
CCN(CC)CCCN1C(=O)c2c(c(C)c3c(oc4ccc(O)cc43)c2C)C1=O | growth | 92.7
CN1C(=O)/C(=C2\SC(=Nc3ccccc3)N(Nc3ccccc3)C2=O)c2ccccc21 | growth | 94.1
CCNc1ccc(-c2nc3ccccc3n3cccc23)cc1 | growth | 79.6
Cc1n[nH]c2ccc(Br)cc2c1=O | growth | 98.3
Cn1cc(-c2csc(-c3c[nH]c4ccc(F)cc34)n2)c2ccnc(Cl)c21 | growth | 64.2
O=C(Cn1nnc2ccccc21)N/N=C/c1c[nH]c2ccccc12 | growth | 71

----------
Tested on: TK-10 renal
Test: NCI-60 one-dose screen, 48 h
Settings: 10 µM unless noted
Method: Growth inhibition of the TK-10 human tumor cell line is measured as a screen for anti-cancer activity. Cells are grown in 96 well plates and exposed to the test compound for 48 hours. Compounds are tested at a single concentration, which is 10^-5 M for most compounds. The reported endpoint is percent growth (GI% or GIPRCNT), where numbers from 0 - 100% represent growth inhibition, and numbers from -100% - 0 represent cell death. For example, a value of 40 represents 60% growth inhibition. […]
Compounds without any hit were thinned out: in the full panel of roughly 83,000, 20% have a hit. Calls of active or inactive are those of the source. Rule for the calls: active = growth percent below 10; inactive = the rest.
Labels: T for active, F for inactive

Molecule | Study Target | Assigned Class
CCC1S/C(=N\N=C(\C)c2cc3cc(Cl)ccc3o2)N(c2ccccc2)C1=O (stereo not given) | TK-10 renal | F
C#Cc1cccc(Nc2nc(C)nc3cc(NC(=O)CCl)ccc23)c1 | TK-10 renal | T
Fc1cc(Nc2ccc3c(OCCCN4CCOCC4)cccc3n2)ccc1Cl | TK-10 renal | F
CC(=O)ON1CCCC(P(=O)(OCCSC(=O)C(C)(C)C)OCCSC(=O)C(C)(C)C)C1=O (stereo not given) | TK-10 renal | F
Cc1c(Cl)cccc1C(=O)Nc1nc2c(s1)CN(C(=O)c1ccc(C(F)(F)F)cc1)CC2 | TK-10 renal | F
Cc1ccc(C)c(/C=C2\CN(C(=O)OC(C)(C)C)C/C(=C\c3cc(C)ccc3C)C2=O)c1 | TK-10 renal | F
CC(=O)O[C@H]1C[C@@H]2C(C)(C)C(=O)CC[C@@]2(C)c2ccc(C(C)C)cc21 | TK-10 renal | F
CCN(CC)CCCN1C(=O)c2c(c(C)c3c(oc4ccc(OC)cc43)c2C)C1=O | TK-10 renal | F
C=CC(=O)Nc1ccc(Oc2nccc(Nc3nnc(-c4ccc(C)cc4)s3)n2)cc1 | TK-10 renal | F
COc1cc(-c2nc3cc(Cl)c(Cl)cc3[nH]2)ccc1OCC(=O)N=Nc1c(O)[nH]c2ccc(Cl)cc12 | TK-10 renal | F
COc1ccc(CNc2c3ccccc3nc3ccccc23)c(OC)c1 | TK-10 renal | F
COc1cc(OC)c(/C=C/C(=O)c2c(O)cc(OC)c(C3CCN(C)CC3)c2OC)c(OC)c1 | TK-10 renal | T
COc1ccc(Nc2ncccc2/C=C/C(=O)c2cc(OC)c(OC)c(OC)c2)cc1 | TK-10 renal | T
Fc1ccc(Cn2cc(CSc3nc4ccccc4o3)nn2)cc1 | TK-10 renal | F
O=C(NNC(=O)c1nc2cc(F)ccc2n2cccc12)c1cnccn1 | TK-10 renal | F
CCOC(=O)c1cnc2c(N=Nc3ccc(OC)cc3)c(N)nn2c1N | TK-10 renal | F
O=C(Cc1ccc(/C=C/C(=O)c2ncc[nH]2)cc1)Nc1cc(C(F)(F)F)cc(C(F)(F)F)c1 | TK-10 renal | F
CC1CCN(C(=O)CCCl)c2ccccc21 (stereo not given) | TK-10 renal | F
C=CC(=O)Nc1ccc(Nc2nccc(-c3ccc(N4CCCC4)c(C#N)c3)n2)cc1 | TK-10 renal | F
CCOC(=O)c1c(C)c2c(n1Cc1ccccc1)CSCC2=O | TK-10 renal | F

----------
System: SF-539 CNS
Assay: NCI-60 one-dose screen, 48 h (100 = growth as untreated, 0 = no growth, -100 = all killed)
Conditions: 10 µM unless noted
This is part of a sample that, as a whole, favours compounds with a hit. Of some 83,000 tested, about 20% had one in any assay. Calls of active or inactive are those of the source. The calls were made as follows: active = growth percent below 10; inactive = the rest.
Readout Name: growth

Compound | Study Target | Readout Name | Reported Result
Cc1nn(-c2ccccc2)c(N)c1N=C1NC(=O)/C(=C/c2ccc(Br)cc2)S1 | SF-539 CNS | growth | 83.4% (inactive)
CCc1n(Cc2ccc3ccccc3n2)cc[n+]1Cc1ccc2ccccc2n1 | SF-539 CNS | growth | 24.5% (inactive)
Nc1nc(N)c2c(n1)NC(c1ccc(Cl)cc1)C1CCc3ccccc3C1=N2 (stereo not given) | SF-539 CNS | growth | 54.3% (inactive)
Cc1ccc(-c2csc(N(C(=O)N3CCN(c4cc5c(cc4F)c(=O)c(C(=O)O)cn5C4CC4)CC3)c3ccccc3)n2)cc1 | SF-539 CNS | growth | -0.211% (active)
C#CCOc1cccc(-c2ncnc3cc(NC(=O)C=C)ccc23)c1 | SF-539 CNS | growth | 8.33% (active)
Cc1ccc(/C=C/C(=O)Nc2ncc(Cc3ccc(F)cc3)s2)o1 | SF-539 CNS | growth | 48.2% (inactive)
COc1ccc(C(=S)N2CCN(c3ccc(Cl)cc3)CC2)cc1 | SF-539 CNS | growth | 102% (inactive)
CN(C)c1ccc(-c2nc(-c3ccccc3)c(-c3ccccc3)[nH]2)cc1 | SF-539 CNS | growth | 102% (inactive)
NC(=O)c1cnc(Nc2cccc(N)c2)nc1NCCCNC(=O)C1CCC1 | SF-539 CNS | growth | 5.4% (active)
COc1ccc(Cn2cc3c(c2-c2ccccc2)CCc2cnoc2-3)cc1 | SF-539 CNS | growth | -12.8% (active)

----------
Test system: SN12C renal
Test: NCI-60 one-dose screen, 48 h (100 = growth as untreated, 0 = no growth, -100 = all killed)
Conditions: 10 µM unless noted
Protocol: Growth inhibition of the SN12C human tumor cell line is measured as a screen for anti-cancer activity. Cells are grown in 96 well plates and exposed to the test compound for 48 hours. Compounds are tested at a single concentration, which is 10^-5 M for most compounds. The reported endpoint is percent growth (GI% or GIPRCNT), where numbers from 0 - 100% represent growth inhibition, and numbers from -100% - 0 represent cell death. For example, a value of 40 represents 60% growth inhibition. […]
Compounds without any hit were thinned out: in the full panel of roughly 83,000, 20% have a hit.
Sorting guide: entries reporting growth beneath 90% go in the Condition met pile, the rest go in the Condition not met pile.

Molecular String | Assigned Class
CN(CCCNC(=O)Cc1ccc2ccc3cccc4ccc1c2c34)CCCNc1cc(-c2ccc3ccccc3c2)nc2ccccc12 | Condition met
CO[C@H]1CC(=O)n2c3ccccc3c3c4c(c5c6ccccc6n1c5c32)C(=O)NC4=O | Condition met
COc1cc(C2C(C(=O)OCc3ccccc3)=C(C)NC(C)=C2C(=O)OCc2ccccc2)cc(OC)c1OC | Condition met
Oc1c(CN2CCC(N3CCCCC3)CC2)cc(Cc2cc(CN3CCC(N4CCCCC4)CC3)c(O)c3ncccc23)c2cccnc12 | Condition met
Cc1ccc2c(=O)cc(C(=O)Nc3sc4c(c3C(=O)NCc3cccnc3)CCCC4)oc2c1C | Condition not met
S=c1nc2oc(-c3ccccc3)c(-c3ccccc3)c2c(/N=C\c2ccco2)[nH]1 | Condition not met
Cc1ccc(-c2csc(NC(=O)c3ccccc3CN3C(=O)c4ccccc4C3=O)n2)cc1 | Condition not met
